# Procedure text: amyloid nucleation score (Sup35N fusion, yeast selection) (log enrichment); library NNK2; higher = more nucleation; inactive = no reads after selection;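 further: zero at mode of non-aggregating sequences after 7 days selection at 30°C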
Criterion met means recorded amyloid nucleation score is -0.1 or above; Criterion not met means it is below -0.1.

Previously resolved entries follow.
LILTCPCMCRFYVWGSTQYR = Criterion not met
DQGVMLFRG = Criterion not met
CVVRFRGPYKFCWPQDRSYS = Criterion met
APSHPSTVFLYICLLFENKP = Criterion not met
YSLLLTIKPTTSWRCVSDGH = Criterion met

In: Assess whether reported amyloid nucleation score for `IPTACEHKRSPRVQPQRNSA` sits at -0.1 or higher.
Out: Criterion met

In: Next: `NTITIMHSDEYVMRVSYICQ`
Out: Criterion met

In: Next: `SWNELSRFLVILLFQLSRDR`
Out: Criterion not met

In: Next: `SKWYVGRHFPPWPR`
Out: Criterion met

In: Next: `NQLRVLMTIFWPGMLNTPAV`
Out: Criterion met

In: Next: `FRSGGPLFFHSMGTGFVFVH`
Out: Criterion not met

In: Next: `NSSWSAPSLCLCM`
Out: Criterion met

In: Next: `VVSSGLHHRLLLCRIEGA`
Out: Criterion met

In: Next: `CGRRMYKSIVQICMFRGNLN`
Out: Criterion met
